- System: greenhouse red spider mite (Tetranychus urticae), OP-resistant
- Protocol Description: Tetranychus urticae spray test, OP-resistant (TETRUR SPRAY)
- Assay type: in vivo
- Measurement Parameters: Tetranychus urticae, 336 h, 4 ppm, bean plants (Phaseolus vulgaris), 14 d, 100% = all spider mites killed, read-out: % effect after 14 d
Value Kind: pest or weed control at 4 ppm (%)
Provide only the numeric value, understood in %.

Examples from the recorded data:
[
  {
    "Compound": "Cc1cc(F)c(/N=C2\\CCCN2CC(F)(F)F)cc1[S+]([O-])CC(F)(F)F (centres unmarked)",
    "Study System": "greenhouse red spider mite (Tetranychus urticae), OP-resistant",
    "Quantitative Result": 0
  },
  {
    "Compound": "Cc1cc(F)c(/N=C(\\N)C2(Cl)CC2)cc1[S+]([O-])CC(F)(F)F (centres unmarked)",
    "Study System": "greenhouse red spider mite (Tetranychus urticae), OP-resistant",
    "Quantitative Result": 30
  },
  {
    "Compound": "Cc1cc(F)c(/N=C(\\N(C)C)C(F)(F)F)cc1[S+]([O-])CC(F)(F)F (centres unmarked)",
    "Study System": "greenhouse red spider mite (Tetranychus urticae), OP-resistant",
    "Quantitative Result": 98
  }
]

Give greenhouse red spider mite (Tetranychus urticae), OP-resistant pest or weed control at 4 ppm for the following compound: Cc1cc(F)c(/N=C(\N)C(F)(F)F)cc1[S+]([O-])CC(F)(F)F (centres unmarked)
95

State recorded pest or weed control at 4 ppm with greenhouse red spider mite (Tetranychus urticae), OP-resistant, entry Cc1cc(F)c(/N=C(\N)c2cnccn2)cc1[S+]([O-])CC(F)(F)F (centres unmarked) , no comment.
0

====

- Tested on: greenhouse red spider mite (Tetranychus urticae), OP-resistant
- Protocol Description: Tetranychus urticae drench test, OP-resistant (TETRUR DRENCH)
- Assay type: in vivo
- Measurement Parameters: Tetranychus urticae, in Phaseolus vulgaris, soil, 336 h, 4 ppm, bean plants (Phaseolus vulgaris) in soil pots, 14 d, 100% = all spider mites killed, read-out: % effect after 14 d
Value Kind: pest or weed control at 4 ppm (%)
Report the value in % with no unit label.

[
  {
    "Compound": "Cc1cc(F)c(/N=C(\\N)c2cnccn2)cc1[S+]([O-])CC(F)(F)F (centres unmarked) [Ib-62]",
    "Units Label": "%",
    "Quantitative Result": 90
  },
  {
    "Compound": "Cc1cc(F)c(/N=C2\\CCCN2CC(F)(F)F)cc1[S+]([O-])CC(F)(F)F (centres unmarked) [Ib-115]",
    "Units Label": "%",
    "Quantitative Result": 90
  },
  {
    "Compound": "Cc1cc(F)c(/N=C(\\N)C2(Cl)CC2)cc1[S+]([O-])CC(F)(F)F (centres unmarked) [Ib-22]",
    "Units Label": "%",
    "Quantitative Result": 90
  },
  {
    "Compound": "Cc1cc(F)c(/N=C(\\N(C)C)C(F)(F)F)cc1[S+]([O-])CC(F)(F)F (centres unmarked) [Ib-01]",
    "Units Label": "%",
    "Quantitative Result": 100
  }
]

# next compound below
Given Cc1cc(F)c(/N=C(\N)C(F)(F)F)cc1[S+]([O-])CC(F)(F)F (centres unmarked) [Ib-11] , report its pest or weed control at 4 ppm on greenhouse red spider mite (Tetranychus urticae), OP-resistant.
100

Values were extracted from patent US11058114B2.
